# assay_target: human ether-à-go-go-related gene (hERG) potassium channel (human)
# Sequence (Q12809 whole entry, looked up): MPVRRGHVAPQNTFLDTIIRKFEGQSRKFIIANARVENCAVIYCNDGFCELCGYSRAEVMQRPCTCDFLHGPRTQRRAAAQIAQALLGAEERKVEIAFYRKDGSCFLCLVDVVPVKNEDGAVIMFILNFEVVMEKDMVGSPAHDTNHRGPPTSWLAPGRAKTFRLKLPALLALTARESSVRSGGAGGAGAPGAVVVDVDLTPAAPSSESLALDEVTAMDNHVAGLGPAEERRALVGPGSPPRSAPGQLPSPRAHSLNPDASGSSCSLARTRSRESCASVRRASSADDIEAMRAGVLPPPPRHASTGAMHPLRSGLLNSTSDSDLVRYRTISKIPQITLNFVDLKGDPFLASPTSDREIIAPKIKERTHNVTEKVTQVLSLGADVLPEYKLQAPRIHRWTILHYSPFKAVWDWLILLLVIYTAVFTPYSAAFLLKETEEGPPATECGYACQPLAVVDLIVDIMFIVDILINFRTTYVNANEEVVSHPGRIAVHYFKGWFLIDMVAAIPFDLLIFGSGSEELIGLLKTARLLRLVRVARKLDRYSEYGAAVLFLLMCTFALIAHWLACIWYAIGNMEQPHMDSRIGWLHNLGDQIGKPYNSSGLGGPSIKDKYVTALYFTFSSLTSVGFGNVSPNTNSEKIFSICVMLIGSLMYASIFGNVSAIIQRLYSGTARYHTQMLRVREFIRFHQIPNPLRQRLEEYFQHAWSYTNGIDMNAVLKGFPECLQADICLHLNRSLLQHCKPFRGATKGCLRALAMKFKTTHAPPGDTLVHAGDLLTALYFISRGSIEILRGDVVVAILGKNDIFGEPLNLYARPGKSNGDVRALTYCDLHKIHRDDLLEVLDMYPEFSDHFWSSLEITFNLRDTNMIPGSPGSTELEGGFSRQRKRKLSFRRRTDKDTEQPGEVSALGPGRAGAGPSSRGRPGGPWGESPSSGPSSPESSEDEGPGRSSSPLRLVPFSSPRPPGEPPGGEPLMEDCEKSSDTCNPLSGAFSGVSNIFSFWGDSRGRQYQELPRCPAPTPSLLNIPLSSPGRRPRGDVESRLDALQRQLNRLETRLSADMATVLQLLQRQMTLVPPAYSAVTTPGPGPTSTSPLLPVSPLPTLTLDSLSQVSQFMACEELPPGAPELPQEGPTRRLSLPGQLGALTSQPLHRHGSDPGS
# measurement_description: primary screen, population patch clamp on CHO cells stably expressing hERG; higher = less effect of the substance
# Source text: Briefly, Chinese hamster ovary (CHO) cells stably expressing the hERG channel were dislodged from tissue culture flasks and dispensed into PPC plates. […] Small molecule effects on hERG current density were quantified by […].
Out of some 310,000 compounds screened, about 2,200 (0.71%) showed an effect of 50% or more. Effects have a minus sign here. The entries come from a sample that favours strong results as a whole.
assay_readout: hERG current change (%, negative = inhibition) at 1uM (%)
The figure you give is taken to be in %; do not add the unit.

Recorded hERG current change (%, negative = inhibition) at 1uM for Cc1ccc(-n2cc(CN3CCC(CO)(Cc4ccccc4)CC3)cn2)cc1 on human ether-à-go-go-related gene (hERG) potassium channel (human) was -22
